System: alpha-N-acetylgalactosaminidase (Gallus gallus)
Measurement Description: Inhibition of chick liver alpha-N-acetylgalactosaminidase
Design: concentration or dose not given beside the values
Measurement Conditions: concentration not given here
Measurement Type: inhibition (%)

Here are 3 compounds together with their reported answers.
O=C(O)[C@@H]1NCCC[C@@H]1O    3.2
O=C(O)[C@H]1NCC=C[C@@H]1O    25
O=C(O)[C@@H]1NCC=C[C@H]1O    3.2

1. O=C(O)[C@H]1NCCC[C@@H]1O
2. O=C(O)[C@@H]1NCCC[C@H]1O
3. O=C(O)[C@H]1NCC=C[C@H]1O
# desc sort on inhibition across 3 compounds Would you mind listing the labels in the order requested? 1, 2, 3

1. O=C(O)[C@H]1NCCC[C@H]1O
2. O=C(O)[C@@H]1NCC=C[C@@H]1O
Between 1 and 2 , which one shows the smaller inhibition number? Let me know the label of the one you choose. 2

----------
Species on record: Bos taurus
Measurement Description: Inhibition of bovine kidney beta-N-acetylglucosaminidase
Set-up: concentration or dose not given beside the values
Measurement Conditions: concentration not given here
Measurement Type: inhibition (%)

In the examples that follow, each entry is paired with its recorded inhibition.
O=C(O)[C@@H]1NCC=C[C@@H]1O    0.8
O=C(O)[C@H]1NCCC[C@@H]1O    38
O=C(O)[C@@H]1NCCC[C@H]1O    32

P. O=C(O)[C@H]1NCC=C[C@H]1O
Q. O=C(O)[C@@H]1NCC=C[C@H]1O
R. O=C(O)[C@H]1NCC=C[C@@H]1O
Rank the 3 compounds: largest inhibition first, smallest last. # answer = labels listed in requested order R, Q, P
(R: 58%, Q: 15%, P: 7.3%)

1. O=C(O)[C@@H]1NCCC[C@@H]1O
2. O=C(O)[C@H]1NCCC[C@H]1O
Which gives the smaller inhibition number: 1 or 2 ? Answer = label. 2
